Molecular target: T1, recombinant mouse VISTA (His-tagged) (mouse, UniProt Q9D659 33-191)
T1 construct: also called murine VISTA; mVISTA
T1 sequence (looked up): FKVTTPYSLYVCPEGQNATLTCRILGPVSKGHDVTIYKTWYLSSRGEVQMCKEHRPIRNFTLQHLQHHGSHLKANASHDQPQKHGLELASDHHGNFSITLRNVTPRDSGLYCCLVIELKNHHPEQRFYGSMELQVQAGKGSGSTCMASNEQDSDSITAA
Experiment: BLI (Octet), 1:1 global fit, His-tagged mouse VISTA captured
experimental.endpoint: Kd

Below, each entry is followed by its recorded Kd result.
{"columns": ["binder", "observed.measurement"],
 "data": [
  ["anti-VISTA clone V4-C31 IgG1 (antibody, V domains shown) VH: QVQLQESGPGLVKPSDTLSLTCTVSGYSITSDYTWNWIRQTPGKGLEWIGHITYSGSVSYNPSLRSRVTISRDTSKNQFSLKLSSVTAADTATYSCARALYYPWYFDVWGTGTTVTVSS VL: EIVLTQSPATLSLSPGERATLSCRASSSVGYIHWYQQKPGQAPRPLIYATYYRTTGIPARFSGSGSGTDNTLTISSLEPEDSAVYYCQQWSSYPPITFGGGTKLEVKR", "< 1 pM"],
  ["anti-VISTA clone V4-C27 IgG1 (antibody, V domains shown) VH: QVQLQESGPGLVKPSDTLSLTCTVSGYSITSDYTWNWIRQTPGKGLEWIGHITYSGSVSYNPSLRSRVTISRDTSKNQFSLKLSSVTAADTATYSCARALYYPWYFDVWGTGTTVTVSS VL: EIVLTQSPATLSLSPGERATLSCRASSSVGYIHWYQQKPGQAPRPLIYATYNRATGIPARFSGSGSGTDNTLTISSLEPEDSAVYYCQQWSSYPPITFGGGTKLEVKR", "< 1 pM"]
]}

With those in mind, consider the next binder.
For this binder ( anti-VISTA clone V4-C24 IgG1 (antibody, V domains shown) VH: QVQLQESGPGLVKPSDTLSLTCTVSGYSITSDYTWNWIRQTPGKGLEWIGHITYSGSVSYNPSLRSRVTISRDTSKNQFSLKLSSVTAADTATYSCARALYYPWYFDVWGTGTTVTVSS VL: EIVLTQSPATLSLSPGERATLSCRASSSVGYIHWYQQKPGQAPRPLIYTTSYRATGIPARFSGSGSGTDNTLTISSLEPEDSAVYYCQQWSSYPPITFGGGTKLEVKR ), measured Kd is < 1 pM
